Source: PubChem BioAssay AID489025

METHOD_DESCRIPTION: THP-1 cell cytotoxicity, dose response, cytotoxicity control for non-replicating M. tuberculosis project (AID 489025)
EXPERIMENTAL_CONTEXT: THP-1 cell viability; series mostly up to 40 µM
Hit rate of the full screen: of about 2,300 compounds, about 790 (34%) were called active. The list shows a part of the results. Potency and affinity values are given separately.
PARAMETER_MEASURED: outcome

{"COMPOUND": "FC(F)(F)c1ccc(-c2nnc(-c3cccnc3)o2)cc1", "RESULT": "inactive"}
{"COMPOUND": "O=C(OCC(=O)N1CCCCC1)c1cc2ccccc2cc1O", "RESULT": "inactive"}
{"COMPOUND": "Cc1cc(C)c2c(=O)n(CC(=O)Nc3cccc(Cl)c3C)sc2n1", "RESULT": "inactive"}
{"COMPOUND": "CCOC(=O)Cn1c2ccc(F)cc2c2nc(C)sc21", "RESULT": "inactive"}
{"COMPOUND": "COC(=O)c1ccccc1NC(=O)C1CC(c2ccc(F)cc2)=NO1 (configuration not stated)", "RESULT": "inactive"}
{"COMPOUND": "Cc1csc(=Nc2cccnc2)n1CC1CCCCC1", "RESULT": "inactive"}

*Q* I'd like to know its outcome. The compound in question is `CCc1ccc(C2=C/C(=C/c3cccnc3)C(=O)O2)cc1`
*A* inactive

*Q* Entry `CCOc1ccc(NC(=O)CCc2ccc(C)o2)cc1` please
*A* inactive

*Q* Entry `O=C(NNc1c(F)c(F)cc(F)c1F)c1cc2ccccc2oc1=O` please
*A* inactive

*Q* Entry `COC(=O)COc1ccc(S(=O)(=O)NCc2ccc3c(c2)OCO3)cc1` please
*A* inactive

*Q* Entry `Cc1cc(C)n2nc(N)c(N=Nc3ccccc3)c2n1` please
*A* inactive

*Q* Entry `C/C(=N/NC(=O)c1cccc(C)c1)c1c(O)cc(C)oc1=O` please
*A* inactive
